Molecular target: Mu-type opioid receptor (Homo sapiens)
Sequence (P35372 whole entry): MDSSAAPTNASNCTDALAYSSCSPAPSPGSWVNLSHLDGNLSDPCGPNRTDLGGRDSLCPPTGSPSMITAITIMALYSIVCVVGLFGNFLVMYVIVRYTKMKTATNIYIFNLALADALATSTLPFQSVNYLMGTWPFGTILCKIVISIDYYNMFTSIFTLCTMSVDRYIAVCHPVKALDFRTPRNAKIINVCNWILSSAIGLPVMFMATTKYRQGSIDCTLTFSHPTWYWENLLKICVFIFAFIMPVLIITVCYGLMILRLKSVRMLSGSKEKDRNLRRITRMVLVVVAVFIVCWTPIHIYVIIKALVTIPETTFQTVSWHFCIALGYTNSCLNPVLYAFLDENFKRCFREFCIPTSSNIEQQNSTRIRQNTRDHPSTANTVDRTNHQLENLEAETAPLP
Assay: Agonist activity at MOP (unknown origin) stably expressed in HEK293 cells assessed as forskolin stimulated cAMP accumulation incubated for 30 mins by radioactivity based scintillation counter analysis relative to control
Assay type: functional, cell-based
Conditions: filed as agonist
hey, just use satisfied if measured Emax is less than 90%, otherwise not satisfied

Test smiles	Assigned category
C=C(C(N)=O)[C@@H](NC(=O)[C@H](Cc1c[nH]c2ccccc12)NC(=O)[C@@H](C)N(C)C(=O)[C@@H](N)Cc1c(C)cc(O)cc1C)c1ccco1	not satisfied
C=C(C(N)=O)[C@@H](NC(=O)[C@H](Cc1ccccc1)NC(=O)[C@@H](C)N(C)C(=O)[C@@H](N)Cc1ccc(O)cc1)c1ccccc1	satisfied
C=C(C(N)=O)[C@@H](NC(=O)[C@H](Cc1c[nH]c2ccccc12)NC(=O)[C@@H](C)N(C)C(=O)[C@@H](N)Cc1c(C)cc(O)cc1C)c1ccccc1	not satisfied
C=C(C(N)=O)[C@@H](NC(=O)[C@H](Cc1ccccc1)NC(=O)[C@@H](C)N(C)C(=O)[C@@H](N)Cc1c(C)cc(O)cc1C)c1ccccc1	not satisfied
C=C(C(N)=O)[C@@H](NC(=O)[C@H](Cc1ccccc1)NC(=O)[C@@H](C)N(C)C(=O)[C@@H](N)Cc1c(C)cc(O)cc1C)c1ccco1	not satisfied

---

Assay: Stability in mouse serum assessed as half life
Type: ADME, cell-free
Assay metric: half-life

Test smiles	Obs value
C=C(C(N)=O)[C@@H](NC(=O)[C@H](Cc1ccccc1)NC(=O)[C@@H](C)N(C)C(=O)[C@@H](N)Cc1c(C)cc(O)cc1C)c1ccccc1	≥ 5 h
Cc1cc(O)cc(C)c1C[C@H](N)C(=O)O	≥ 5 h
C=C(C(=O)O)[C@@H](N)c1ccco1	≥ 5 h
C=C(C(N)=O)[C@@H](NC(=O)[C@H](Cc1ccccc1)NC(=O)[C@@H](C)N(C)C(=O)[C@@H](N)Cc1c(C)cc(O)cc1C)c1ccco1	≥ 5 h
CN[C@H](C)C(=O)O	≥ 5 h
COC(=O)[C@H](Cc1ccccc1)NC(=O)[C@H](Cc1ccccc1)NC(=O)[C@@H]1CCCN1C(=O)[C@@H](N)Cc1ccc(O)cc1	0.502 h
CCOC(=O)[C@H](Cc1ccccc1)NC(=O)[C@H](Cc1ccccc1)NC(=O)[C@@H]1CCCN1C(=O)[C@@H](N)Cc1ccc(O)cc1	0.498 h
C=C(C(N)=O)[C@@H](NC(=O)[C@H](Cc1c[nH]c2ccccc12)NC(=O)[C@@H](C)N(C)C(=O)[C@@H](N)Cc1c(C)cc(O)cc1C)c1ccco1	≥ 5 h

---

Biological target: Mu-type opioid receptor (Homo sapiens)
Assay: Binding affinity to MOP (unknown origin)
Bridge positions count the residues as written; N and C are the ends. Square brackets hold non-standard residues; d marks the D form. Peptide text beside a SMILES is read from it.
hey, just use true if measured Ki is less than 9 nM, otherwise false

Compound	Measurement target	Assigned category
C[C@@H](NC(=O)[C@@H](N)Cc1ccc(O)cc1)C(=O)N[C@@H](Cc1ccccc1)C(=O)NCC(=O)O (H-Y[dA]FG-OH)	Mu-type opioid receptor (Homo sapiens)	false
CC(C)(C)OC(=O)[C@H](Cc1ccccc1)NC(=O)[C@H](Cc1ccccc1)NC(=O)[C@@H]1CCCN1C(=O)[C@@H](N)Cc1ccc(O)cc1	Mu-type opioid receptor (Homo sapiens)	false
NCCCC[C@H](NC(=O)[C@H](Cc1ccccc1)NC(=O)[C@@H](CCCN=C(N)N)NC(=O)[C@@H](N)Cc1ccc(O)cc1)C(N)=O	Mu-type opioid receptor (Homo sapiens)	true
C[C@@H](NC(=O)[C@@H](N)Cc1ccc(O)cc1)C(=O)N[C@@H](Cc1ccccc1)C(=O)NCC(=O)N[C@@H](Cc1ccc(O)cc1)C(N)=O (H-Y[dA]FGY-NH2)	Mu-type opioid receptor (Homo sapiens)	true
CCOC(=O)[C@H](Cc1ccccc1)NC(=O)[C@H](Cc1ccccc1)NC(=O)[C@@H]1CCCN1C(=O)[C@@H](N)Cc1ccc(O)cc1	Mu-type opioid receptor (Homo sapiens)	false
C[C@@H](NC(=O)[C@@H](N)Cc1ccc(O)cc1)C(=O)N[C@@H](Cc1ccccc1)C(=O)NCC(=O)N[C@@H](Cc1ccc(O)cc1)C(=O)N1CCC[C@H]1C(N)=O	Mu-type opioid receptor (Homo sapiens)	true
N[C@@H](Cc1ccc(O)cc1)C(=O)N[C@@H]1CCCCNC(=O)[C@H](Cc2ccccc2)NC(=O)[C@H](Cc2c[nH]c3ccccc23)NC1=O (H-Y[dK]WF; lactam 2-C)	Mu-type opioid receptor (Homo sapiens)	true
CC[C@@H]1CN2CC[C@]3(O)c4c(cccc4OC)NC3[C@@H]2C[C@@H]1/C(=C\OC)C(=O)OC (some centres undefined)	Mu-type opioid receptor (Homo sapiens)	false

---

Biological target: Kappa-type opioid receptor (Homo sapiens)
Sequence (P41145 whole entry): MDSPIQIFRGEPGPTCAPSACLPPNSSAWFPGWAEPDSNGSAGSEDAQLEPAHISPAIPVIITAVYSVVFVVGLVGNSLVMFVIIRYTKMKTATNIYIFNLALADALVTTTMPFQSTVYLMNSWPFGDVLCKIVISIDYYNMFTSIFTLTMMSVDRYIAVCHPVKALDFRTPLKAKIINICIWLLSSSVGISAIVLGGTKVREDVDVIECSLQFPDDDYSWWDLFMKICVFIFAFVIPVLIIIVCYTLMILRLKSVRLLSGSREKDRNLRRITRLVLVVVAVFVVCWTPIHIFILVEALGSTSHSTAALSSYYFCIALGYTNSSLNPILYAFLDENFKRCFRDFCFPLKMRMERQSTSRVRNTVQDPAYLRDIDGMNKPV
Experiment: Antagonist activity at human KOP stably expressed in CHO cell membrane assessed as [35S]GTPgammaS binding
Assay type: functional, cell membranes
pIC50: −log10 of the molar value.

Test smiles	pIC50
C[C@@H]1NC(=O)[C@@H](Cc2c[nH]c3ccccc23)NC(=O)[C@H](Cc2ccccc2)NC(=O)[C@H]2CCCN2C1=O	9.09
C[C@@H]1NC(=O)[C@H]2CCCN2C(=O)[C@H](Cc2ccccc2)NC(=O)[C@@H](Cc2c[nH]c3ccccc23)NC1=O	6.40
C[C@H]1NC(=O)[C@H](Cc2ccccc2)NC(=O)[C@H]2CCCN2C(=O)[C@H](Cc2ccccc2)NC1=O	6.04

---

Biological target: Mu-type opioid receptor (Cavia porcellus, UniProt P97266)
Sequence (P97266 whole entry): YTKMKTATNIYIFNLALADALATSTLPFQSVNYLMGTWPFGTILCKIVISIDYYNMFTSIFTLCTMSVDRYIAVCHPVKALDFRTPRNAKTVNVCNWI
Assay: Antagonist activity at guinea pig ileum MOP
pIC50: −log10 of the molar value. Square brackets hold non-standard residues; d marks the D form. Peptide text beside a SMILES is read from it.
So basically: pIC50 at 8 or higher? That is Met. Lower than 8? That is Not met.

Compound	Measurement target	Assigned category
C[C@@H](NC(=O)[C@@H](N)Cc1ccc(O)cc1)C(=O)N[C@@H](Cc1ccccc1)C(=O)NCC(=O)N[C@@H](Cc1ccc(O)cc1)C(=O)N1CCC[C@H]1C(N)=O	Mu-type opioid receptor (Cavia porcellus, UniProt P97266)	Met
C[C@@H](NC(=O)[C@@H](N)Cc1ccc(O)cc1)C(=O)N[C@@H](Cc1ccccc1)C(N)=O	Mu-type opioid receptor (Cavia porcellus, UniProt P97266)	Not met
C[C@@H](NC(=O)[C@@H](N)Cc1ccc(O)cc1)C(=O)N[C@@H](Cc1ccccc1)C(=O)NCC(=O)N[C@@H](Cc1ccc(O)cc1)C(=O)N1CCC[C@H]1C(=O)N[C@@H](CO)C(N)=O [DERMORPHIN]	Mu-type opioid receptor (Cavia porcellus, UniProt P97266)	Met
C[C@@H](NC(=O)[C@@H](N)Cc1ccc(O)cc1)C(=O)N[C@@H](Cc1ccccc1)C(=O)NCC(=O)N[C@@H](Cc1ccc(O)cc1)C(=O)N1CCC[C@H]1C(=O)N[C@@H](CCCCN)C(N)=O	Mu-type opioid receptor (Cavia porcellus, UniProt P97266)	Met
C[C@@H](NC(=O)[C@@H](N)Cc1ccc(O)cc1)C(=O)N[C@@H](Cc1ccccc1)C(=O)NCC(=O)N[C@@H](Cc1ccc(O)cc1)C(N)=O (H-Y[dA]FGY-NH2)	Mu-type opioid receptor (Cavia porcellus, UniProt P97266)	Met
N=C(N)NCCC[C@@H](NC(=O)[C@@H](N)Cc1ccc(O)cc1)C(=O)N[C@@H](Cc1ccccc1)C(=O)NCC(=O)N[C@@H](Cc1ccc(O)cc1)C(=O)N1CCC[C@H]1C(N)=O	Mu-type opioid receptor (Cavia porcellus, UniProt P97266)	Not met
N=C(N)NCCC[C@@H](NC(=O)[C@@H](N)Cc1ccc(O)cc1)C(=O)N[C@@H](Cc1ccccc1)C(=O)NCC(=O)N[C@@H](Cc1ccc(O)cc1)C(=O)N1CCC[C@H]1C(=O)N[C@@H](CO)C(N)=O	Mu-type opioid receptor (Cavia porcellus, UniProt P97266)	Not met
N=C(N)NCCC[C@@H](NC(=O)[C@@H](N)Cc1ccc(O)cc1)C(=O)N[C@@H](Cc1ccccc1)C(=O)NCC(=O)N[C@@H](Cc1ccc(O)cc1)C(N)=O	Mu-type opioid receptor (Cavia porcellus, UniProt P97266)	Not met
N=C(N)NCCC[C@@H](NC(=O)[C@@H](N)Cc1ccc(O)cc1)C(N)=O	Mu-type opioid receptor (Cavia porcellus, UniProt P97266)	Not met
N=C(N)NCCC[C@@H](NC(=O)[C@@H](N)Cc1ccc(O)cc1)C(=O)N[C@@H](Cc1ccccc1)C(N)=O	Mu-type opioid receptor (Cavia porcellus, UniProt P97266)	Not met
C[C@@H](NC(=O)[C@@H](N)Cc1ccc(O)cc1)C(=O)N[C@@H](Cc1ccccc1)C(=O)NCC(=O)O (H-Y[dA]FG-OH)	Mu-type opioid receptor (Cavia porcellus, UniProt P97266)	Not met
C[C@@H](NC(=O)[C@@H](N)Cc1ccc(O)cc1)C(=O)N[C@@H](Cc1ccccc1)C(=O)NCC(=O)N[C@@H](Cc1ccc(O)cc1)C(=O)N1CCC[C@H]1C(=O)N[C@@H](CO)C(N)=O	Mu-type opioid receptor (Cavia porcellus, UniProt P97266)	Not met
